tgt: hDGAT1 (Homo sapiens, UniProt O75907)
Construct: host or cells: Sf9 insect cells (baculovirus); microsomal preparation
Sequence (O75907 1-488): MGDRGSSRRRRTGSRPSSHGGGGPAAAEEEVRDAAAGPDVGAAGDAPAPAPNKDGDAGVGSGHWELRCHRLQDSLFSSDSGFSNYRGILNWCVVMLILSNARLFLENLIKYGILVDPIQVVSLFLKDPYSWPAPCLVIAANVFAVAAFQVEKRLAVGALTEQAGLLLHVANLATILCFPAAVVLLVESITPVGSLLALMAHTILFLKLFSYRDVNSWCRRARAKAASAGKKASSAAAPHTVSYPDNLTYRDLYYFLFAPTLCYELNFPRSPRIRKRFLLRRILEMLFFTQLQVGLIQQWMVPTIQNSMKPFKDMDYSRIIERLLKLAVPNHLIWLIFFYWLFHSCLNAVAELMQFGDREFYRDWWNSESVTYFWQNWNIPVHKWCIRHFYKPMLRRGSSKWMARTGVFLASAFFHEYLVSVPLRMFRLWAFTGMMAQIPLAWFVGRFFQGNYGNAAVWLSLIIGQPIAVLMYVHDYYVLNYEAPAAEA
assay info: In-vitro DGAT1 assay (hDGAT1 microsomes from Sf9 cells, 14C oleoyl CoA, triglyceride formation)
Format: biochemical
condition info: At 10 μM
measured property: % inhibition of hDGAT1

COC(=O)[C@@H](NC(=O)c1cc(-c2ccc(NC(=O)NC3CCCCC3)cc2)no1)C(C)C: ++ (>50% Inhibition ≦75)
COC(=O)[C@@H](NC(=O)c1cc(-c2ccc(NC(=O)Nc3ccc(F)cc3)c(F)c2)no1)C(C)C: ++ (>50% Inhibition ≦75)

---

tgt: hDGAT1 (Homo sapiens, UniProt O75907)
Construct: host or cells: Sf9 insect cells (baculovirus); microsomal preparation
assay info: In-vitro DGAT1 assay (hDGAT1 microsomes from Sf9 cells, 14C oleoyl CoA, triglyceride formation)
Type: biochemical
condition info: At 1 μM
measured property: inhibition at 1 µM

Some entries whose results are on file:
CCS/C(=N\[C@@H](C(=O)OC)C(C)C)c1cc(-c2ccc(NC(=O)Nc3ccccc3F)cc2)no1: 0 to 50%
CC(C)[C@H](NC(=O)c1cc(-c2ccc(NC(=O)Nc3ccc(C(F)(F)F)cc3Cl)cc2)no1)C(=O)O: 75 to 100%
Cc1ccc(Cl)c(NC(=O)Nc2ccc(-c3cc(C(=O)N[C@H](C(=O)O)C(C)C)on3)cc2)c1: 75 to 100%
CC(C)[C@@H](C(=O)O)N(C)C(=O)c1cc(-c2ccc(NC(=O)Nc3ccc(F)cc3)cc2)no1: 50 to 75%
CC(C)[C@H](NC(=O)c1csc(-c2ccc(NC(=O)Nc3ccc4c(c3)CCC4)cc2)n1)C(=O)O: 0 to 50%

Continue with the compound presented below.
Exercise: Dear colleague, please send me the reported inhibition at 1 µM for CC(C)C(NC(=O)c1cc(-c2ccc(NC(=O)c3ccc(C(C)(C)C)cc3)cc2)no1)C(=O)O (stereo not drawn) when you can.
Key: 75 to 100%

---

Measured inhibition at 1 µM, listed per entry for reference.
tgt: hDGAT1 (Homo sapiens, UniProt O75907)
Construct: host or cells: Sf9 insect cells (baculovirus); microsomal preparation
Sequence (O75907 1-488): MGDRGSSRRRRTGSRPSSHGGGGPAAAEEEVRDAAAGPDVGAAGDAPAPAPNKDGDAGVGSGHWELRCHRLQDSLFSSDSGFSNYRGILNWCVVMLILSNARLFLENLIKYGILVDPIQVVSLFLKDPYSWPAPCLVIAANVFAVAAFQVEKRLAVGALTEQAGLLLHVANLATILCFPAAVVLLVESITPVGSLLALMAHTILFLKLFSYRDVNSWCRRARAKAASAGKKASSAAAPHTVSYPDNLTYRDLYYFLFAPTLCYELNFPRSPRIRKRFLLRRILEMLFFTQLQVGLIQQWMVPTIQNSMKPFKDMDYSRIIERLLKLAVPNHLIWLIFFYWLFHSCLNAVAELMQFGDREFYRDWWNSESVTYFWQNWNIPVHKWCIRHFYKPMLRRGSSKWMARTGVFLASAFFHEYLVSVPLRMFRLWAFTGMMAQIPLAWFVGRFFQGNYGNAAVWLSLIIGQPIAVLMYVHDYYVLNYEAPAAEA
assay info: In-vitro DGAT1 assay (hDGAT1 microsomes from Sf9 cells, 14C oleoyl CoA, triglyceride formation)
Type: biochemical
condition info: At 1 μM

Some molecules with recorded inhibition at 1 µM:
COC(=O)[C@H]1CCCN1C(=O)c1cc(-c2ccc(NC(=O)Nc3ccccc3F)cc2)no1: 50 to 75%
CC(C)[C@H](NC(=O)c1csc(-c2ccc(NC(=O)Nc3ccc(F)c(F)c3)cc2)n1)C(=O)O: 0 to 50%
CC(C)C(NC(=O)c1cc(-c2ccc(NC(=O)Nc3ccc(OC(F)(F)F)cc3Cl)cc2)no1)C(=O)O (stereo not shown): 75 to 100%
Cc1ccc(NC(=O)Nc2ccc(-c3cc(C(=O)N[C@H](C(=O)O)C(C)C)on3)cc2)cc1C: 75 to 100%
CC(C)[C@@H](NC(=O)c1cc(-c2ccc(NC(=O)Nc3ccc(C#N)cc3)cc2)no1)C(=O)O: 50 to 75%

Exercise: Quote inhibition at 1 µM reported for Cc1ccc(F)c(NC(=O)Nc2ccc(-c3cc(C(=O)NC(C(=O)O)C(C)C)on3)cc2)c1 (stereo not shown) please.
Key: 75 to 100%

Exercise: Please report inhibition at 1 µM for the following molecule: Cc1ccc(Cl)cc1NC(=O)Nc1ccc(-c2cc(C(=O)N[C@H](C(=O)O)C(C)C)on2)cc1
Key: 75 to 100%
